B1: NECAB1 (parent)
chain: FSPNSPQFNVSGPGLLEEDNQWMT

- Variants of: B1
- Assay Protocol: protein stability index of a GFP-peptide fusion (GPS, HEK-293T) (PSI 1-6); higher = more stable;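 further: lentivirally expressed fusions sorted by FACS into six bins by GFP to DsRed ratio, PSI derived from sequencing read proportions per bin multiplied by bin number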
- Study Conditions: c terminus: a fixed tail appended
Quantity Name: protein stability index
Enter a number only.

stdin: Field request: protein stability index | item: "E17Q"
stdout: 3.13

src = the supplement of paper PMC10567573
